Biological target: human fatty acid amide hydrolyase (FAAH) (Homo sapiens)
Sequence (O00519 whole entry): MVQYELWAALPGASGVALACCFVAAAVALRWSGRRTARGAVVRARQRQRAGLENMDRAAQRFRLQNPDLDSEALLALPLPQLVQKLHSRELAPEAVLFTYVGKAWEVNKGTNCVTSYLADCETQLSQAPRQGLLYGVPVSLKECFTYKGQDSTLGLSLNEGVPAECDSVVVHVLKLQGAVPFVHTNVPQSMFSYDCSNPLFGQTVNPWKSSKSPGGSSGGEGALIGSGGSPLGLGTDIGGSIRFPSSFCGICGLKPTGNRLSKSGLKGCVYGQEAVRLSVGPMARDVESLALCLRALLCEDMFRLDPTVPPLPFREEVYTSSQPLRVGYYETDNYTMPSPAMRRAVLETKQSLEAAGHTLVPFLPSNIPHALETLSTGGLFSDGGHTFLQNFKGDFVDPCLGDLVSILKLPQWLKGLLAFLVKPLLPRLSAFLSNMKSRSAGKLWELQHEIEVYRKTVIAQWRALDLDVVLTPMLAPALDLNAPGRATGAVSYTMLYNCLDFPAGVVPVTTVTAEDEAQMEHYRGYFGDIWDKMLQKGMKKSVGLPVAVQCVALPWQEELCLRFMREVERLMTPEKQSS
pIC50: −log10 of the molar value.
propertyMeasured: pIC50

>>> reportedmeasurement("CC(C)CNC(=O)n1c(=O)oc2cc(C3CCN(C)CC3)ccc21 [22m]")
7.15

---

Experiment: Plasma and brain concentrations in Twitcher mice
Type: in vivo
Settings: both sexes, Twitcher (GALC–/−), mouse, brain, ip, 30 mg kg^–1, Twitcher mice, 30 mg kg^–1 i.p., 1 h after last dose (day 20); read-out: Cb, u (μM) brain unbounded concentration
propertyMeasured: concentration at 1 h (µM)

>>> reportedmeasurement("CC(C)CNC(=O)n1c(=O)oc2cc(C3CCN(C)CC3)ccc21 [22m]")
0.8

---

Assay: In vivo pharmacokinetic study in male CD1 mice
Details: mouse, iv, plasma, 3 mg kg^–1 i.v.
propertyMeasured: AUC at 24 h (ng·h/mL)

>>> reportedmeasurement("CC(C)CNC(=O)n1c(=O)oc2cc(C3CCN(C)CC3)ccc21 [22m]")
212

---

Experiment: Chemical stability assay in PBS pH 7.4
Format: physicochemical
Settings: phosphate-buffered saline; PBS, pH 7.4; read-out: chemical stability t1/2
Recorded half-life at 1 μM for the following molecules
propertyMeasured: half-life at 1 μM

>>> reportedmeasurement("O=C(NCCCCc1ccccc1)n1c(=O)oc2ccncc21")
"< 15 min"
>>> reportedmeasurement("O=C(NCCCCc1ccccc1)n1c(=O)oc2cnccc21")
"< 15 min"

---

Test: In vivo pharmacokinetic study in male CD1 mice
Conditions: mouse, po, plasma, 10 mg kg^–1 p.o.
propertyMeasured: half-life at 24 h (h)

>>> reportedmeasurement("CC(C)CNC(=O)n1c(=O)oc2cc(C3CCN(C)CC3)ccc21 [22m]")
1.03

---

Test: In vivo pharmacokinetic study in male CD1 mice
Settings: mouse, iv, plasma, 3 mg kg^–1 i.v., read-out: Cl (L h^–1 kg^–1) (converted)
propertyMeasured: clearance at 24 h (mL/min/kg)

>>> reportedmeasurement("CC(C)CNC(=O)n1c(=O)oc2cc(C3CCN(C)CC3)ccc21 [22m]")
235

---

Experiment: In vivo pharmacokinetic study in male CD1 mice
Details: mouse, iv, CSF, 3 mg kg^–1 i.v.
propertyMeasured: AUC at 24 h (ng·h/mL)

>>> reportedmeasurement("CC(C)CNC(=O)n1c(=O)oc2cc(C3CCN(C)CC3)ccc21 [22m]")
77.8

---

Assay: Plasma and brain concentrations in Twitcher mice
Assay type: in vivo
Conditions: both sexes, Twitcher (GALC–/−), mouse, plasma, ip, 90 mg kg^–1, Twitcher mice, 90 mg kg^–1 i.p., 1 h after last dose (day 20); read-out: Cp (μM) plasma concentration
propertyMeasured: concentration at 1 h (µM)

>>> reportedmeasurement("CC(C)CNC(=O)n1c(=O)oc2cc(C3CCN(C)CC3)ccc21 [22m]")
3.85

---

Assay: Chemical stability assay in PBS pH 7.4
Type: physicochemical
Settings: phosphate-buffered saline; PBS at pH 7.4; read-out: chemical stability t1/2
propertyMeasured: half-life at 1 μM

>>> reportedmeasurement("O=C(NCCCCc1ccccc1)n1c2c(oc1=O)CNCC2 [17b]")
"> 8 h"
>>> reportedmeasurement("O=C(NCCCCc1ccccc1)n1c2c(oc1=O)CCNC2 [12b]")
"> 8 h"

---

Assay: In vitro plasma stability study
Type: in vitro ADME
Conditions: mouse plasma; read-out: m-plasma t1/2
Procedure: Freshly prepared 10 mM MeCN stock solution of test compound was diluted 50-fold with DMSO/H2O (1:1) and incubated at 37 °C for 2 h with mouse plasma added in 5% DMSO (preheated at 37 °C for 10 min). The final concentration was 2 μM. […] The concentration of test compound was quantified by LC/MS/MS on a Waters ACQUITY UPLC/MS TQD system consisting of a TQD MS equipped with an ESI interface. […] The response factors, calculated on the basis of the internal standard peak area, were plotted over time. […]
Recorded half-life at 2 μM for the following compounds
propertyMeasured: half-life at 2 μM

>>> reportedmeasurement("CCN1CCN(c2ccc3c(c2)oc(=O)n3C(=O)NCCCCc2ccccc2)CC1 [23g]")
"< 0.0833 h"
>>> reportedmeasurement("CCCCCNC(=O)n1c(=O)oc2cc(C3CCN(C)CC3)ccc21 [22k]")
"> 1 h"
>>> reportedmeasurement("CN1CCN(c2ccc3c(c2)oc(=O)n3C(=O)NCCCCc2ccccc2)CC1 [23f]")
"< 0.0833 h"
>>> reportedmeasurement("CC(C)CN1CCC(c2ccc3c(c2)oc(=O)n3C(=O)NCCCCc2ccccc2)CC1 [22h]")
"1 h"
>>> reportedmeasurement("CC(C)CNC(=O)n1c(=O)oc2cc(C3CCN(C)CC3)ccc21 [22m]")
"> 1 h"

---

Assay: In vivo pharmacokinetic study in male CD1 mice
Conditions: mouse, po, plasma, 10 mg kg^–1 p.o.
propertyMeasured: AUC at 24 h

>>> reportedmeasurement("CC(C)CNC(=O)n1c(=O)oc2cc(C3CCN(C)CC3)ccc21 [22m]")
"412 ng·h/mL"

---

Assay: Plasma and brain concentrations in Twitcher mice
Type: in vivo
Conditions: both sexes, Twitcher (GALC–/−), mouse, plasma, ip, 30 mg kg^–1, Twitcher mice, 30 mg kg^–1 i.p., 1 h after last dose (day 20); read-out: Cp (μM) plasma concentration
propertyMeasured: concentration at 1 h (µM)

>>> reportedmeasurement("CC(C)CNC(=O)n1c(=O)oc2cc(C3CCN(C)CC3)ccc21 [22m]")
0.85

---

Molecular target: AC (Homo sapiens, UniProt Q13510)
Sequence (Q13510 22-395): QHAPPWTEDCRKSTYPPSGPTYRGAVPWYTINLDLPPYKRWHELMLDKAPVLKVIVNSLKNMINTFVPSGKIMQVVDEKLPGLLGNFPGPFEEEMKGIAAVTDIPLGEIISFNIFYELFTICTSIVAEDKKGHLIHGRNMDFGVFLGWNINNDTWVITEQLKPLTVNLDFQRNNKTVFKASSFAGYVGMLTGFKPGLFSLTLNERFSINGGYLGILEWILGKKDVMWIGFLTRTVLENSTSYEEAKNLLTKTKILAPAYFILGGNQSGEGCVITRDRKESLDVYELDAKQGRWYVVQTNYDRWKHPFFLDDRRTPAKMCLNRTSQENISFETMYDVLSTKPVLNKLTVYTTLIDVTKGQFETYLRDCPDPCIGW
Assay: EC50 determination in primary fibroblast cells from Krabbe's disease patients
Type: cell-based
Set-up: expressed in transfected cells
Conditions: primary fibroblast cells of Krabbe's patients, Figure S1
pEC50: −log10 of the molar value.
propertyMeasured: pEC50

>>> reportedmeasurement("CC(C)CNC(=O)n1c(=O)oc2cc(C3CCN(C)CC3)ccc21 [22m]")
6.40

---

Test: In vivo pharmacokinetic study in male CD1 mice
Conditions: mouse, iv, plasma, 3 mg kg^–1 i.v., read-out: Vdss (L kg^–1)
propertyMeasured: Vd at 24 h

>>> reportedmeasurement("CC(C)CNC(=O)n1c(=O)oc2cc(C3CCN(C)CC3)ccc21 [22m]")
"12.5 L/kg"

---

Test: In vivo pharmacokinetic study in male CD1 mice
Conditions: mouse, plasma, oral bioavailability, 10 mg kg^–1 p.o.
propertyMeasured: bioavailability (%)

>>> reportedmeasurement("CC(C)CNC(=O)n1c(=O)oc2cc(C3CCN(C)CC3)ccc21 [22m]")
58

---

Target: AC (Homo sapiens, UniProt Q13510)
Test: Fluorogenic hAC assay on hAC-enriched lysate of HEK293 cells
Format: biochemical
Parameters: expressed in transfected cells
Settings: hAC expressed in HEK-293 cells; read-out: hAC IC50 (μM)±SD
propertyMeasured: IC50 (µM)

>>> reportedmeasurement("CC(C)CNC(=O)n1c(=O)oc2cc(C3CCCCN3C)ccc21 (racemic) [compound 26]")
1.01
>>> reportedmeasurement("CN1CCC(c2cc3oc(=O)n(C(=O)NCCCCc4ccccc4)c3cc2F)CC1 [22p]")
0.024
>>> reportedmeasurement("CC(=O)N1CCC(c2ccc3c(c2)oc(=O)n3C(=O)NCCCCc2ccccc2)CC1 [22i]")
0.064
>>> reportedmeasurement("CC(C)CN1CCC(c2ccc3c(c2)oc(=O)n3C(=O)NCCCCc2ccccc2)CC1 [22h]")
0.12
>>> reportedmeasurement("CC(C)CNC(=O)n1c(=O)oc2ccc(C3CCN(C)CC3)cc21 [24c]")
0.295

---

Experiment: In vivo pharmacokinetic study in male CD1 mice
Details: mouse, iv, CSF, 3 mg kg^–1 i.v.
propertyMeasured: half-life at 24 h

>>> reportedmeasurement("CC(C)CNC(=O)n1c(=O)oc2cc(C3CCN(C)CC3)ccc21 [22m]")
"39.7 min"

---

Assay: In vivo pharmacokinetic study in male CD1 mice
Details: mouse, po, brain, 10 mg kg^–1 p.o.
propertyMeasured: Tmax (h)

>>> reportedmeasurement("CC(C)CNC(=O)n1c(=O)oc2cc(C3CCN(C)CC3)ccc21 [22m]")
1

---

Experiment: In vitro microsomal stability study
Assay type: in vitro ADME
Conditions: pH 7.4; mouse liver microsomes; read-out: m-LM t1/2
propertyMeasured: half-life at 1 h, 4.6 µM (min)

>>> reportedmeasurement("Cl.O=C(NCCCCc1ccccc1)n1c(=O)oc2cc(N3CCNCC3)ccc21 [23e]")
45
>>> reportedmeasurement("O=C(NCCCCc1ccccc1)n1c(=O)oc2cc(C3CCN(CC(F)F)CC3)ccc21 [22r]")
20
>>> reportedmeasurement("CN1CCN(c2ccc3c(c2)oc(=O)n3C(=O)NCCCCc2ccccc2)CC1=O [23j]")
30
>>> reportedmeasurement("CN1CCC(c2ccc3c(c2)oc(=O)n3C(=O)NCCCCc2ccc(F)cc2)CC1 [22o]")
30
>>> reportedmeasurement("CC(=O)N1CCC(c2ccc3c(c2)oc(=O)n3C(=O)NCCCCc2ccccc2)CC1 [22i]")
60
>>> reportedmeasurement("CC(C)CNC(=O)n1c(=O)oc2ccc(C3CCN(C)CC3)cc21 [24c]")
40
>>> reportedmeasurement("CC(C)CNC(=O)n1c(=O)oc2c(C3CCN(C)CC3)cccc21 [compound 25]")
30
>>> reportedmeasurement("CN1CCC(c2ccc3c(c2)oc(=O)n3C(=O)NCCOCc2ccccc2)CC1 [22j]")
30
>>> reportedmeasurement("CN1CCC(c2ccc3c(c2)oc(=O)n3C(=O)NCCCCc2ccccc2)CC1 [22e]")
40
>>> reportedmeasurement("CN1CCC(c2ccc3c(c2)oc(=O)n3C(=O)NCCCCc2ccccc2)CC1=O (stereo not shown) [22q]")
35
>>> reportedmeasurement("CCN1CCC(c2ccc3c(c2)oc(=O)n3C(=O)NCCCCc2ccccc2)CC1 [22f]")
60
>>> reportedmeasurement("CC(C)CNC(=O)n1c(=O)oc2cc(C3CCCCN3C)ccc21 (racemic) [compound 26]")
15
>>> reportedmeasurement("CC(C)N1CCC(c2ccc3c(c2)oc(=O)n3C(=O)NCCCCc2ccccc2)CC1 [22g]")
60
